Values were extracted from patent US20020032228A1.

TARGET_OR_SYSTEM: Adenylate Cyclase (Bordetella pertussis)
Sequence (P0DKX7 whole entry, looked up): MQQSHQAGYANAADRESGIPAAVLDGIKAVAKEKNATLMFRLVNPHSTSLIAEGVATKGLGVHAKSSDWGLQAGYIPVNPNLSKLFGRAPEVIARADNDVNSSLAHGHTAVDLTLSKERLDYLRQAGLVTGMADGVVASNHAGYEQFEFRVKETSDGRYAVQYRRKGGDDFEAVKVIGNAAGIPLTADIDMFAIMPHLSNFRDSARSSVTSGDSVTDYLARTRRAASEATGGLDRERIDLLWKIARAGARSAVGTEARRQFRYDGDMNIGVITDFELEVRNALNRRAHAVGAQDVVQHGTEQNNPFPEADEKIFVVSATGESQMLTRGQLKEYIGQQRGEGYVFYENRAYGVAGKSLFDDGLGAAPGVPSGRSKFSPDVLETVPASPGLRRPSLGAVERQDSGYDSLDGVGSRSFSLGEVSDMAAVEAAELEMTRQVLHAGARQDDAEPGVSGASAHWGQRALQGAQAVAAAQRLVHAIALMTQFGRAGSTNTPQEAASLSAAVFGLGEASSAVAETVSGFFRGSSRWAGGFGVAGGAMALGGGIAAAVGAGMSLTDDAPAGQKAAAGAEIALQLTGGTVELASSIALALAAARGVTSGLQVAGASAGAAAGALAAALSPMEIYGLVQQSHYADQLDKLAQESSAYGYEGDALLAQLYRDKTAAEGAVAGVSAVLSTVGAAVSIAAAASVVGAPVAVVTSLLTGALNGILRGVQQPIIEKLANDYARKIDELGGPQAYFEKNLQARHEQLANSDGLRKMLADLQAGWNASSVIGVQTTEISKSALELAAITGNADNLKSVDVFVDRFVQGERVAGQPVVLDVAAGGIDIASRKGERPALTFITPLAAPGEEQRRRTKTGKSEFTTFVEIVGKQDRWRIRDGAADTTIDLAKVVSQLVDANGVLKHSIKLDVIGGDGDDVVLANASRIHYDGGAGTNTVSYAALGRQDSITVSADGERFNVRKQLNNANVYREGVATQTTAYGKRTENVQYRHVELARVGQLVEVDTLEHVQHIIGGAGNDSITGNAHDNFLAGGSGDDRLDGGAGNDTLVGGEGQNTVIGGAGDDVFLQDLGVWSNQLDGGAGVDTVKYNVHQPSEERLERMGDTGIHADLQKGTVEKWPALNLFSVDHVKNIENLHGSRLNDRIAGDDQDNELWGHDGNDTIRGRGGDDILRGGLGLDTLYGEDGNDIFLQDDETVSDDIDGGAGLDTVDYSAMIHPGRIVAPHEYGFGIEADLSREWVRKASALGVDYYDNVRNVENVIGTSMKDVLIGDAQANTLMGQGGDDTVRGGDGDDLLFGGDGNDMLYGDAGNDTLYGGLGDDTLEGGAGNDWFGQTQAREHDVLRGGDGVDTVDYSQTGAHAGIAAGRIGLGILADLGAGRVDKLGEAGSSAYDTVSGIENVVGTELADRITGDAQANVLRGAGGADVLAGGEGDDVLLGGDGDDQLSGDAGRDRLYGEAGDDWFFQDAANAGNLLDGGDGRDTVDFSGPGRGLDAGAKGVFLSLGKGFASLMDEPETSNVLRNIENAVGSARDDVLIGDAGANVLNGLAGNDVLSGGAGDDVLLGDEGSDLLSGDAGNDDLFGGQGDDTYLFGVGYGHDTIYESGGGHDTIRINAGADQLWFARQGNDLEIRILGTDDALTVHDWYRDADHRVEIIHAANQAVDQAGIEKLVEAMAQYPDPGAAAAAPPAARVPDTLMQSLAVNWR
ASSAY_INFO: biochemical
Assay type: biochemical
METRIC: IC50
Express the reported value numerically, then name its unit.

[
  {
    "MOLECULE": "Cc1ccc(-c2cc(C(F)(F)F)nn2-c2ccc(S(N)(=O)=O)cc2)cc1 [celecoxib, reference compound]",
    "IC50": "20 µM"
  }
]

Measured IC50, c1c[nH]cn1 [imidazole] : 1570 µM

----------
ASSAY_INFO: physchem
RUN_CONDITIONS: pH 5.5
METRIC: half-life

Measured half-life, CCCCCC(O)/C=C/[C@H]1C(n2ccnc2)CC(=O)[C@H]1C/C=C\CCCC(=O)O (stereo partly shown) : ~60 h
